Just for reference, PubChem BioAssay AID1345085 is where these values come from.

# Test system: Hek293T
# test summary: Confirmatory qHTS for gynecologic anti-cancer compounds from libraries of approved drugs and bioactive compounds; further: nearly all actives have a fitted effect of over 55% in size
# reported conditions: gynecologic cancer cell panel viability, ATPlite luminescence, 48 h; series mostly up to 57.6 µM
Results filed as inconclusive are left out. The source made the active and inactive calls. The call rests on the fitted dose curve; in most records, active means well fitted cell-killing curve with a large enough effect; inconclusive means small, poorly fitted or top-dose-only effect, or effect the other way; inactive means no such curve, though single readings can be large or run the other way.
The reply should name one outcome from true = active, false = inactive

Hi team, can someone confirm the assay call for Cc1nc(Nc2n[nH]c3c2CN(C(=O)NC(CN(C)C)c2ccccc2)C3(C)C)c2sccc2n1 (configuration not stated) ?
true

Field: outcome | Entry: CN(Cc1cnc2nc(N)nc(N)c2n1)c1ccc(C(=O)N[C@@H](CCC(=O)O)C(=O)O)cc1
true

Per the records of this test, what outcome belongs to CC(C)C[C@H](NC(=O)[C@H](Cc1ccccc1)NC(=O)c1cnccn1)B(O)O ?
true

# fetch the recorded call for COc1cc2c(Oc3ccc(-c4cnc(Nc5ccc(F)cc5)n(C)c4=O)cc3F)ccnc2cc1OCCCN1CCOCC1 here
true

Query: recorded result category for Nc1nccc(Oc2ccc(NC(=O)c3c[nH]cc(-c4ccc(F)cc4)c3=O)cc2F)c1Cl in this test
true

Each compound tested received a call. Report the one for CC(C)n1nc(-c2cc3cc(O)ccc3[nH]2)c2c(N)ncnc21 .
true

Answer briefly: the call reported for C[C@@]1(C(=O)Nc2ccc(F)nc2)CCCN1c1nc(Nc2cc(C3CC3)[nH]n2)c2cccn2n1 in this assay.
false

Recorded test outcome, item CC[C@@]1(O)C(=O)OCc2c1cc1n(c2=O)Cc2cc3c(CN(C)C)c(O)ccc3nc2-1
true

Identify the outcome logged in this assay for the compound shown: C1CCC(C(CC2CCCCN2)C2CCCCC2)CC1 (configuration not stated)
true

So what was the verdict on Nc1ccc(-c2ccc3ncc4ccc(=O)n(-c5cccc(C(F)(F)F)c5)c4c3c2)cn1 in this test?
true

// param item: O=C(c1ccc(F)c(F)c1Nc1ccc(I)cc1F)N1CC(O)([C@@H]2CCCCN2)C1 ; yields the recorded call
true

Per the records of this test, what outcome belongs to COc1cc(N2CCC(N3CCN(C)CC3)CC2)ccc1Nc1ncc(Cl)c(Nc2ccccc2S(=O)(=O)C(C)C)n1 ?
true

Given CN(C)C1CCN(C(=O)c2ccc(NC(=O)Nc3nc(N4CCOCC4)nc(N4CCOCC4)n3)cc2)CC1 , state the outcome it received in this test.
true

// param item: NC(=O)c1cccc2cn(-c3ccc([C@@H]4CCCNC4)cc3)nc12 ; yields the recorded call
false

Which outcome was assigned to COCCOc1nc(-c2ccc(Cl)c(Cl)c2)n(-c2ccc(NC(=O)CCl)cc2)n1 in this test?
true

What classification did COc1cc(Nc2ncc(F)c(Nc3ccc4c(n3)N(COP(=O)(O)O)C(=O)C(C)(C)O4)n2)cc(OC)c1OC end up with in this test?
false

Per the records of this test, what outcome belongs to CC(C)C[C@H](NC(=O)[C@@H](NC(=O)c1cccc(-c2ccccc2)n1)[C@@H](C)O)B(O)O ?
true
